The following variants are listed with their measured protein stability index values.
B1: TOR1AIP2 (parent)
chain: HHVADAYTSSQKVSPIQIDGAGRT

# Variants of: B1
# Experiment: protein stability index of a GFP-peptide fusion (GPS, HEK-293T) (PSI 1-6); higher = more stable;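 note: lentivirally expressed fusions sorted by FACS into six bins by GFP to DsRed ratio, PSI derived from sequencing read proportions per bin multiplied by bin number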
# Run Parameters: c terminus: a fixed tail appended
Readout Name: protein stability index

{"columns": ["Var", "Quantitative Result"],
 "data": [
  ["S10A", 3],
  ["A4V", 3.39],
  ["T8W", 2.86],
  ["S9D", 4.04],
  ["S14G", 3.27],
  ["S14D", 4.07],
  ["D19N", 3.34],
  ["S14H", 3.44],
  ["I18L", 3.57],
  ["P15G", 4.04],
  ["Q17P", 3.93]
]}

Source of measurements: the supplement of paper PMC10567573
